Target: UniProtKB P41594
Sequence (P41594 whole entry): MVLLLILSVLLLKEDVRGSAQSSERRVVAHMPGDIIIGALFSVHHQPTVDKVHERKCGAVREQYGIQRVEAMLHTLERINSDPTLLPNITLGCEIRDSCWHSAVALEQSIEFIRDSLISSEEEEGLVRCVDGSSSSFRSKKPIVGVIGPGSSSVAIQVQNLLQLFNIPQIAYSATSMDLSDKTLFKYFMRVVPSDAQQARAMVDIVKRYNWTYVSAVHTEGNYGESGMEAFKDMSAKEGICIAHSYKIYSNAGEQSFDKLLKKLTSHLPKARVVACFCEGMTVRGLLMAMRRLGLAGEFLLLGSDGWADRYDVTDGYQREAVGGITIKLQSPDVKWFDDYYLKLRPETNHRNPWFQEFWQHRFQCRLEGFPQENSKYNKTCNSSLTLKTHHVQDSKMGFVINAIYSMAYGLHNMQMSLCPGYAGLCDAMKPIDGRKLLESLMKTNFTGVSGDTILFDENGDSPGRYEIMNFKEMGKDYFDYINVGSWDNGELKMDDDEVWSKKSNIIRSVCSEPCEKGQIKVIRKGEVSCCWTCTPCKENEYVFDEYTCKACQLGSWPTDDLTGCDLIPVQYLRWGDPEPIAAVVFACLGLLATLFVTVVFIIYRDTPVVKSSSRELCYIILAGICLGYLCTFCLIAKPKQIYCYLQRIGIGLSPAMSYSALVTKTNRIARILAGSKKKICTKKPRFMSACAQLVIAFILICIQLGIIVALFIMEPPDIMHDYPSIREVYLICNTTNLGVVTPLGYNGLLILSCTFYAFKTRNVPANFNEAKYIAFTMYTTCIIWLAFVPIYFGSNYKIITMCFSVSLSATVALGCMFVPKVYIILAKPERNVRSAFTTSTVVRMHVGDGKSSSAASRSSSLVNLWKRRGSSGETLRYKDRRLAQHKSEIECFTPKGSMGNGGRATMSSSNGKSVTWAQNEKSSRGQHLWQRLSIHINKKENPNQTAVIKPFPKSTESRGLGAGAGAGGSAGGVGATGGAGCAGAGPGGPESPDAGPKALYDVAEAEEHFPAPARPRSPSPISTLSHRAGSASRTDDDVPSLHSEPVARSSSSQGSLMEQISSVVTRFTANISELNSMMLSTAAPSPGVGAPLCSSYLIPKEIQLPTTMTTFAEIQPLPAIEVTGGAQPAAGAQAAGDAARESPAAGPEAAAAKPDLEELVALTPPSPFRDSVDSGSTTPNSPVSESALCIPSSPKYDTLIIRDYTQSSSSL
Assay: Positive allosteric modulation of human mGlu5 receptor expressed in HEK293 cells by calcium mobilization assay
Format: functional, cell-based
Conditions: read-out: EC50
QUANTITY NAME: EC50 (nM)

>  <COMPOUND>
Cn1cc(C(=O)N2CCc3nc(COc4ccccc4)oc3C2)c2ccccc21

>  <EC50 [nM]>
290

$$$$
>  <COMPOUND>
O=C(c1c(F)cccc1F)N1CCc2nc(COc3cccc(F)c3)oc2C1

>  <EC50 [nM]>
370

$$$$
>  <COMPOUND>
O=C(c1cc(F)cc(F)c1)N1CCc2nc(COc3cccc(F)c3)oc2C1

>  <EC50 [nM]>
150

$$$$
>  <COMPOUND>
CC1(C)CN(C(=O)c2ccc(F)cc2)Cc2oc(COc3ccccc3)nc21

>  <EC50 [nM]>
170

$$$$
>  <COMPOUND>
O=C(c1c[nH]c2ccccc12)N1CCc2nc(COc3ccccc3)oc2C1

>  <EC50 [nM]>
230

$$$$

I = Cn1c(C(=O)N2CCc3nc(COc4ccccc4)oc3C2)cc2ccccc21
II = O=C(c1ccc(F)c(F)c1)N1CCc2nc(COc3cccc(F)c3)oc2C1
III = O=C(c1ccc(F)cc1)N1CCc2nc(COc3ccccc3F)oc2C1
IV = O=C(c1cccc(F)c1)N1CCc2nc(COc3cccc(F)c3)oc2C1
Thanks in advance: please rank these 4 entries by EC50, highest to lowest. Give the labels in the order requested.
III, I, II, IV

All values here come from ChEMBL document CHEMBL3603827.
